Test: Inhibition of alpha-amylase (unknown origin) using starch as substrate preincubated for 10 mins followed by substrate addition and measured after 10 mins
Set-up: species or system Homo sapiens
pIC50: −log10 of the molar value.
Criterion: pIC50 meeting or surpassing 4. Met: Criterion met. Not met: Criterion not met.

Solved entries:
>>> label_value("O=C(CN1C(=O)/C(=C/c2nc3ccccc3s2)SC1=S)Nc1c(F)cc(Br)cc1Cl")
"Criterion not met"
>>> label_value("O=C(CN1C(=O)/C(=C/c2csc3ccccc23)SC1=S)Nc1c(F)cc(F)cc1Br")
"Criterion not met"
>>> label_value("O=C(CN1C(=O)/C(=C/c2nc3ccccc3s2)SC1=S)Nc1ccc(C(F)(F)F)cc1")
"Criterion met"

Q. hey, is pIC50 for this one >= 4? O=C(CN1C(=O)/C(=C/c2nccs2)SC1=S)Nc1c(F)cc(Br)cc1Cl
A. Criterion met

Q. hey, is pIC50 for this one >= 4? Cn1ccnc1/C=C1\SC(=S)N(CC(=O)Nc2ccc(C(F)(F)F)cc2)C1=O
A. Criterion met

Q. hey, is pIC50 for this one >= 4? C[C@H]1O[C@H](O[C@H]2[C@H](O)[C@@H](O)[C@@H](O[C@H]3[C@H](O)[C@@H](O)C(O)O[C@@H]3CO)O[C@@H]2CO)[C@H](O)[C@@H](O)[C@@H]1N[C@H]1C=C(CO)[C@@H](O)[C@H](O)[C@H]1O (some centres not stated) [ACARBOSE]
A. Criterion not met

The values you see were collected from ChEMBL document CHEMBL6182895.
